System: NCI-H23
Assay: NCI tumour cell line growth inhibition, 48 h
Activity calls are given as the source filed them. No stated cut-off is given here; in the data, active = GI50 up to about 1.1 µM and inactive = higher.
Would you mind answering with one of these outcomes? 1 = active, -1 = inactive

Molecule: CCOC(=O)C(NC(=O)C(CCCCNP(=O)(OCC)OCC)NC(=O)C(C)NC(C)=O)C(C)C (stereo not given)
Discrete Label: -1
--
Molecule: CC(C)CCC[C@@H](C)C1CCC2[C@@H]3CC=C4C[C@@H](C(=O)NCCN(C)C)CC[C@]4(C)C3CC[C@@]21C (stereo not given in full)
Discrete Label: -1
--
Molecule: COc1cc(O)c2c(=O)cc(C3(O)C=CC(=O)C=C3)oc2c1
Discrete Label: 1
--
Molecule: O=c1[nH]nc(Cc2ccccc2)n1/N=C/c1ccc([N+](=O)[O-])o1
Discrete Label: -1

[in] # fetch the recorded call for CC1(C)C(=O)C(C)(C)C1=NN here
[out] -1

[in] # fetch the recorded call for O=C1C(Br)=CC2([N+](=O)[O-])CCNC3=C(C4=NCCc5c[nH]c(c54)C3=O)C2=C1Br (stereo not given) here
[out] -1

[in] # fetch the recorded call for CCOC(=O)/C(C#N)=C/N(CC)/N=C/c1ccccc1 here
[out] -1

[in] # fetch the recorded call for COC(=O)C1OC(O[C@H]2CC[C@]3(C)[C@H]4CC=C5[C@@H]6CC(C)(C)CC[C@]6(C(=O)OC6OCC(O)C(O)C6OC6OC(C)C(OC7OCC(OC8OCC(O)C(O)C8O)C(O)C7O)C(O)C6O)[C@H](O)C[C@@]5(C)[C@]4(C)CC[C@H]3C2(C)C)C(O)C(O)C1O (stereo not given in full) here
[out] -1

[in] # fetch the recorded call for CCCC(OCC)(OCC)OCC here
[out] -1

[in] # fetch the recorded call for CC(=O)C1Cn2c(=O)c3cc4ccccc4cc3c(=O)n2C=C1C (stereo not given) here
[out] -1

[in] # fetch the recorded call for NC(C/C=C/P(=O)(O)O)C(=O)O (stereo not given) here
[out] -1

[in] # fetch the recorded call for O=C1NC(=S)NC(=O)C1C(c1ccc([N+](=O)[O-])cc1)C1C(=O)NC(=S)NC1=O.c1ccncc1 here
[out] -1

[in] # fetch the recorded call for Oc1nc(S)nc2c1CN(CCCN1CCOCC1)CN2 here
[out] -1

[in] # fetch the recorded call for Cc1cccc(-n2c(C)nc3ccc(NC(=S)Nc4ccccc4)cc3c2=O)c1 here
[out] -1

[in] # fetch the recorded call for COc1cccc2c(Nc3ccc(S(=O)(=O)Nc4ncccn4)cc3)c3ccc([N+](=O)[O-])cc3nc12 here
[out] -1

====

We begin with a simple list: items and their reported GI50.
Tested on: EKVX
Experiment: NCI tumour cell line growth inhibition, 48 h
The source made the active and inactive calls. No stated cut-off is given here; in the data, active = GI50 up to about 1.1 µM and inactive = higher.

Worked set:
Compound: Cc1ccc(C2=CC(=O)OC(C[P+](c3ccccc3)(c3ccccc3)c3ccccc3)(c3ccccc3)O2)cc1 (stereo not drawn)
Measurement Label: GI50
Result: 15.3 µM (inactive)
--
Compound: CN1CCC(C(O)(c2ccccc2)c2ccc(Br)cc2)CC1 (stereo not drawn)
Measurement Label: GI50
Result: 28.8 µM (inactive)

Please look at the following compound next.
[in] Provide the reported GI50 (system: EKVX) for CO[C@@H]1C[C@H]2[C@@H]3CC[C@H]([C@@H](C)CO)[C@@]3(C)CC[C@@H]2[C@@]2(C)CC[C@H]3C[C@]312
[out] 27.2 µM (inactive)
